All values here come from patent US6436960B1.

system.under.test: Ras farnesyl transferase (Homo sapiens, UniProt P49354+P49356)
Construct: made in house
assay.protocol: in vitro inhibitory activity for Ras farnesyl transferase, K-Ras substrate
Assay type: biochemical
assay.conditions: recombinant Ras farnesyl transferase, K-Ras substrate; read-out: K-Ras IC50
experimental.endpoint: IC50 (nM)
# unit: nM | format: bare number

As a guide, the following entries are already answered.
> print(dat)
                                 smiles.str  result.value
1  CN1CCN(C(=O)c2cn(Cc3cncn3CC3CCN(S(C)(=O)=O)CC3)cc2-c2cccc3ccccc23)CC1            10
2  COCCN(C)C(=O)c1cn(Cc2cncn2CC2CCN(C(=O)OC/C=C(\C)CCC=C(C)C)CC2)cc1-c1cccc2ccccc12            50
3  CN1CCN(C(=O)c2cn(Cc3cncn3CC3CCN(C(=O)OCc4ccc(F)cc4)CC3)cc2-c2cccc3ccccc23)CC1             6
4  COCCN(C)C(=O)c1cn(Cc2cncn2CC2CCN(C(=O)OCCC(C)C)CC2)cc1-c1cccc2ccccc12            20
5  CN1CCN(C(=O)c2cn(Cc3cncn3CC3CCN(C(=O)OCc4ccccc4)CC3)cc2-c2cccc3ccccc23)CC1            15

The molecule COCCN(C)C(=O)c1cn(Cc2cncn2CC2CCN(C(=O)OCc3ccc4ccccc4c3)CC2)cc1-c1cccc2ccccc12 , tested on Ras farnesyl transferase (Homo sapiens, UniProt P49354+P49356), showed IC50 of 10

---

system.under.test: Ras farnesyl transferase (Homo sapiens, UniProt P49354+P49356)
Construct: made in house
assay.protocol: in vitro inhibitory activity for Ras farnesyl transferase, K-Ras substrate
Type: biochemical
assay.conditions: recombinant Ras farnesyl transferase, K-Ras substrate; read-out: K-Ras IC50
pIC50: −log10 of the molar value.
Below, each entry is listed alongside its reported pIC50.

As a guide, the following entries are already answered.
> print(dat)
                                 smiles.str  experimental.endpoint  result.value
1  COCCN(C)C(=O)c1cn(Cc2cncn2CC2CCN(C(=O)OCc3csc(C(C)C)n3)CC2)cc1-c1cccc2ccccc12                  pIC50  7.00 to 8.00
2  COCCN(C)C(=O)c1cn(Cc2cncn2CC2CCNCC2)cc1-c1cccc2ccccc12                  pIC50  6.00 to 8.00

Per the records, this molecule ( COCCN(C)C(=O)c1cn(Cc2cncn2CC2CCN(Cc3ccc(Oc4ccccc4)cc3)CC2)cc1-c1cccc2ccccc12 ) has pIC50 equal to 7.00 to 8.00

---

system.under.test: Ras farnesyl transferase (Homo sapiens, UniProt P49354+P49356)
Construct: made in house
assay.protocol: in vitro inhibitory activity for Ras farnesyl transferase, K-Ras substrate
Format: biochemical
assay.conditions: recombinant Ras farnesyl transferase, K-Ras substrate; read-out: K-Ras IC50
experimental.endpoint: IC50

As a guide, the following entries are already answered.
> print(dat)
                                   molecule   result.value
1  COCCN(C)C(=O)c1cn(Cc2cncn2CC2CCN(C(=O)NCc3ccccc3)CC2)cc1-c1cccc2ccccc12 [Compound 9]  10 to 1000 nM
2  CCCCNC(=O)N1CCC(Cn2cncc2Cn2cc(C(=O)N(C)CCOC)c(-c3cccc4ccccc34)c2)CC1 [Compound 10]  10 to 1000 nM
3  COCCN(C)C(=O)c1cn(Cc2cncn2CC2CCN(C(=O)NC3CCCCC3)CC2)cc1-c1cccc2ccccc12 [Compound 11]  10 to 1000 nM

Per the records, this molecule ( COCCN(C)C(=O)c1cn(Cc2cncn2CC2CCN(C(=O)OC)CC2)cc1-c1cccc2ccccc12 [Compound 17] ) has IC50 equal to 10 to 1000 nM

---

Below, each entry is listed alongside its reported pIC50.
system.under.test: Ras farnesyl transferase (Rattus norvegicus, UniProt Q02293+Q04631)
Construct: endogenous in cells; host or cells: Rat2 fibroblasts transformed with C-Harvey-Ras, or with H-Ras carrying the K-Ras C-terminal polybasic lysine domain
assay.protocol: in vivo (cellular) Ras farnesyl transferase inhibitory activity, Rat2 cells transformed with H-Ras fused with polybasic lysine domain of K-Ras
Type: cell-based
assay.conditions: Rat2 cell line transformed with H-Ras substituted with polybasic lysine domain at C-terminus of K-Ras; concentration inhibiting 50% of farnesyl binding; read-out: K-Ras CIC50
Protocol: In the present experiment, Rat2 cell line which expresses C-Harvey-Ras protein having transforming activity and Rat2 cell line(Korean patent application No. 97-14409) which is transformed with fused protein of H-Ras substituted with polybasic lysine domain at C-terminus of K-Ras were used. The experiment was performed by the modified Declue's method(Declue. J. E. et al., Cancer Research, 1991, 51, 712). Hereinafter, the experimental method will be described in more detail. […]
pIC50: −log10 of the molar value.

> print(dat)
                                   compound                         system.under.test  result.value
1  COCCN(C)C(=O)c1cn(Cc2cncn2CC2CCN(C(=O)OCc3ccccc3)CC2)cc1-c1cccc2ccccc12 [Compound 5]  Ras farnesyl transferase (Rattus norvegicus, UniProt Q02293+Q04631)  5.00 to 6.00
2  CN1CCN(C(=O)c2cn(Cc3cncn3CC3CCN(C(=O)CCc4ccccc4)CC3)cc2-c2cccc3ccccc23)CC1 [Compound 43]  Ras farnesyl transferase (Rattus norvegicus, UniProt Q02293+Q04631)  4.30 to 5.00
3  COCCN(C)C(=O)c1cn(Cc2cncn2CC2CCN(C(=O)/C=C/c3ccccc3)CC2)cc1-c1cccc2ccccc12 [Compound 28]  Ras farnesyl transferase (Rattus norvegicus, UniProt Q02293+Q04631)  5.00 to 6.00
4  COCCN(C)C(=O)c1cn(Cc2cncn2CC2CCN(C(=O)NC3CCCCC3)CC2)cc1-c1cccc2ccccc12 [Compound 11]  Ras farnesyl transferase (Rattus norvegicus, UniProt Q02293+Q04631)  4.30 to 6.00
5  COCCN(C)C(=O)c1cn(Cc2cncn2CC2CCN(Cc3ccc(-c4ccccc4)cc3)CC2)cc1-c1cccc2ccccc12 [Compound 33]  Ras farnesyl transferase (Rattus norvegicus, UniProt Q02293+Q04631)  5.00 to 6.00

Per the records, this compound ( COCCN(C)C(=O)c1cn(Cc2cncn2CC2CCN(C(=O)N(C)Cc3ccccc3)CC2)cc1-c1cccc2ccccc12 [Compound 30] ) has pIC50 equal to 5.00 to 6.00

Per the records, this compound ( COCCN(C)C(=O)c1cn(Cc2cncn2CC2CCN(C(=O)c3csc(C(C)C)n3)CC2)cc1-c1cccc2ccccc12 [Compound 29] ) has pIC50 equal to 4.30 to 5.00

Per the records, this compound ( COCCN(C)C(=O)c1cn(Cc2cncn2CC2CCN(C(=O)N3CCCc4ccccc43)CC2)cc1-c1cccc2ccccc12 [Compound 31] ) has pIC50 equal to 4.30 to 5.00

---

system.under.test: Ras farnesyl transferase (Homo sapiens, UniProt P49354+P49356)
Construct: made in house
assay.protocol: in vitro inhibitory activity for Ras farnesyl transferase, H-Ras substrate
Type: biochemical
assay.conditions: recombinant Ras farnesyl transferase, H-Ras substrate, tritium-farnesylpyrophosphate, 30 minutes at 37° C.; read-out: H-Ras IC50
Below, each entry is listed alongside its reported IC50.

> print(dat)
                                 smiles.str  result.value
1  CCCCNC(=O)N1CCC(Cn2cncc2Cn2cc(C(=O)N(C)CCOC)c(-c3cccc4ccccc34)c2)CC1    1 to 10 nM
2  COCCN(C)C(=O)c1cn(Cc2cncn2CC2CCN(C(=O)OC/C=C(\C)CCC=C(C)C)CC2)cc1-c1cccc2ccccc12  10 to 100 nM
3  CCCCCCC(=O)N1CCC(Cn2cncc2Cn2cc(C(=O)N(C)CCOC)c(-c3cccc4ccccc34)c2)CC1    1 to 10 nM

Continue with the compound presented below.
Per the records, this compound ( COCCN(C)C(=O)c1cn(Cc2cncn2CC2CCN(C(=O)OC)CC2)cc1-c1cccc2ccccc12 ) has IC50 equal to 1 to 10 nM

---

system.under.test: Ras farnesyl transferase (Homo sapiens, UniProt P49354+P49356)
Construct: made in house
assay.protocol: in vitro inhibitory activity for Ras farnesyl transferase, K-Ras substrate
Format: biochemical
assay.conditions: recombinant Ras farnesyl transferase, K-Ras substrate; read-out: K-Ras IC50
Below, each entry is listed alongside its reported IC50.

> print(dat)
                                 smiles.str                         system.under.test  result.value
1  COCCN(C)C(=O)c1cn(Cc2cncn2CC2CCN(C(=O)OCc3ccccc3)CC2)cc1-c1cccc2ccccc12  Ras farnesyl transferase (Homo sapiens, UniProt P49354+P49356)  10 to 100 nM
2  COCCN(C)C(=O)c1cn(Cc2cncn2CC2CCN(Cc3ccc(-c4ccccc4)cc3)CC2)cc1-c1cccc2ccccc12  Ras farnesyl transferase (Homo sapiens, UniProt P49354+P49356)  10 to 100 nM

Continue with the molecule presented below.
Per the records, this molecule ( COCCN(C)C(=O)c1cn(Cc2cncn2CC2CCN(S(C)(=O)=O)CC2)cc1-c1cccc2ccccc12 ) has IC50 equal to 10 to 100 nM
